Assay: amyloid nucleation score (Sup35N fusion, yeast selection) (log enrichment); library NNK2; higher = more nucleation; inactive = no reads after selection;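 further: zero at mode of non-aggregating sequences after 7 days selection at 30°C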
Catalogue of amyloid nucleation score values
Kindly provide the number alone.

Example entries and their recorded answers appear below.
{"Substance": "NYILRQAGEMFGLLGDFGDG", "amyloid nucleation score": -0.165}
{"Substance": "NGVIRVSWSTR", "amyloid nucleation score": 6.48}
{"Substance": "WRPKPKWFLGGYGWTGERRL", "amyloid nucleation score": 0.418}
{"Substance": "SFRLQIRV", "amyloid nucleation score": -0.417}
{"Substance": "AEDFVLAEEYI", "amyloid nucleation score": -0.285}
{"Substance": "RLVIGT", "amyloid nucleation score": 2.41}
{"Substance": "SSVEAELICLWKFCTTHVCT", "amyloid nucleation score": 0.168}
{"Substance": "SDFVEKLLWFSY", "amyloid nucleation score": 0.039}

Incoming: Name the recorded amyloid nucleation score for LYETSMNDPMRVHHLRCEFI .
Outgoing: -0.254

Incoming: Value lookup for amyloid nucleation score; key = VYFTSVMNSCVYVSAVCEMC
Outgoing: 6.95

Incoming: Tell me the measured amyloid nucleation score of SVIASWKSCLSLLVFQH , please.
Outgoing: -0.695

Incoming: What does the data say about its amyloid nucleation score? Entry: IGTEMLTVYIFTYSSA
Outgoing: 0.416

Incoming: Report amyloid nucleation score for ETRGNRPF please.
Outgoing: 0.88

Incoming: # lookup: amyloid nucleation score of MNCVLQKLVVVCFQSMAYMR
Outgoing: 0.498

Incoming: Report amyloid nucleation score for NRLWHPQCLWAFLNIRNPQL please.
Outgoing: 0.286

* * *

Test: amyloid nucleation score (Sup35N fusion, yeast selection) (log enrichment); library NNK2; higher = more nucleation; inactive = no reads after selection
# maps each entry to its amyloid nucleation score
The reply should be a number, written without any unit.

Answered cases to consult:
{"Substance": "RSDCCRDQYT", "Numeric readout": -0.311}
{"Substance": "SYNTRFIASSCSGSY", "Numeric readout": -1.06}

Then this substance:
Incoming: Can you share its amyloid nucleation score? I mean this substance: LVVLWK
Outgoing: 6.01

* * *

Assay: amyloid nucleation score (Sup35N fusion, yeast selection) (log enrichment); library NNK1; higher = more nucleation; inactive = no reads after selection
Output True for amyloid nucleation score not less than -0.01; output False otherwise.

Solved cases below.
{"Sequence input": "VALWYFCCVVAYYGGARLVS", "Category": "True"}
{"Sequence input": "WLWIRFIAVTSSSVEIRANS", "Category": "False"}
{"Sequence input": "AIFGVTPKSVITTYNFTLHM", "Category": "True"}
{"Sequence input": "KCMFVESKSRDNCVMSNES", "Category": "False"}
{"Sequence input": "FIHVVAFWRLSRDSY", "Category": "True"}

Incoming: State whether the measured amyloid nucleation score reaches -0.01, counting equality as reaching it, for DMEQAICEPSLFKIVGDNNL
Outgoing: False

Incoming: Evaluate ILSAMVRE : amyloid nucleation score at minimum -0.01?
Outgoing: False

Incoming: amyloid nucleation score >= -0.01 for RWAWVDYNLCRVCLTKYS ?
Outgoing: False

* * *

Assay: amyloid nucleation score (Sup35N fusion, yeast selection) (log enrichment); library NNK1; higher = more nucleation; inactive = no reads after selection
Recorded amyloid nucleation score values for a group of substances are listed next.
# print the numeric value only

Past entries and their recorded results:
{"Substance": "YLPVYNY", "amyloid nucleation score": 0.487}
{"Substance": "RIGRKDLLFWVPTCRHVLLL", "amyloid nucleation score": 0.416}
{"Substance": "NVGRSAICVRSCRMSLVFDG", "amyloid nucleation score": 0.11}

Incoming: For the substance shown here, WVAWTYMENLSCLYFETATM , give the reported amyloid nucleation score.
Outgoing: -0.593

Incoming: Any idea what amyloid nucleation score was measured for TWDFSFDQGIKY ?
Outgoing: -0.125

Incoming: Return reported amyloid nucleation score; argument: TFVACDLKCPRCAWVGDFVM
Outgoing: -0.912

Incoming: What amyloid nucleation score value was documented for this substance, TYIFVIPHLVRSTDWTLFAE ?
Outgoing: 0.017

Incoming: Dear colleague, I am looking for the recorded amyloid nucleation score of the following substance: CNYWRNRRWF
Outgoing: 1.48
